Would you mind telling me the reported z-score of each entry?
# Experiment Description: E. coli growth modulation, two-sided OD650, primary screen, E. coli filamentation project, strain DRC41, 24 h (AID 1093);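 further: MC1000 strain lacking acrAB efflux and sulA so SOS filamentation is blocked; test concentration not given here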
# Condition: OD650, 24 h, higher = more signal, called active from +8 up or from −8 down
No unit in the answer, only the number.

Given the molecule O=C(CS)NCCCCCNC(=O)[C@H]1C[C@H]2C(=O)N3CCC[C@H]3C(=O)N2[C@H]1c1ccc(O)cc1 , what is its reported z-score?
1.62

Given the molecule C=CC[C@]1(C(N)=O)N=C(c2ccc(OCCCO)cc2)O[C@H]1c1ccccc1CN=[N+]=[N-] , what is its reported z-score?
1.85

Given the molecule COC(=O)c1c(CC[C@@H](CO)NC(=O)N[C@H](Cn2cc(-c3cncn3C)nn2)C(C)C)oc(C(C)=O)c1C(=O)OC , what is its reported z-score?
2.3

Given the molecule N#Cc1ccc(NN2C(C(O)c3ccc(I)cc3)C=CC3C(=O)N(c4ccccc4)C(=O)C32)cc1 (stereo unspecified) , what is its reported z-score?
-1.38

Given the molecule C/C(=N\O)C(=O)NCCCCCNC(=O)OCc1ccccc1 , what is its reported z-score?
2.03

Given the molecule O=C(NCC(O)CO)[C@]1(Cc2ccccc2)N=C(c2ccc(OCCCO)cc2)O[C@@H]1c1ccccc1 (stereo partly specified) , what is its reported z-score?
0.897

Given the molecule COCCOC(=O)N1C(=O)[C@@]2(c3cc(C#CCNC(N)=O)ccc31)[C@H](c1ccc(OCCO)cc1)N1[C@H](c3ccccc3)[C@H](c3ccccc3)OC(=O)[C@H]1[C@@H]2C(=O)Nc1nc2ccccc2s1 , what is its reported z-score?
2.56

Given the molecule CCOC(=O)[C@H]1C/C=C/C[C@H](C(=O)OCC)C(=O)O[C@H]2[C@@H](OC)O[C@H](CO)[C@@H](OC(=O)Nc3ccc(Br)cc3)[C@@H]2OC1=O , what is its reported z-score?
2.91

Given the molecule COC(=O)[C@H]1[C@@H]2COc3ccccc3[C@H]2N[C@H]1C(=O)OC , what is its reported z-score?
0.694

Given the molecule CO[C@H]1COC(=O)[C@@H](OCc2ccccc2)C=C[C@H](C)[C@@H](OC)COC(=O)[C@H](OCc2ccccc2)C=C[C@@H]1C , what is its reported z-score?
-0.255

Given the molecule CN1C(=O)C2C=CC(C(O)C3CC=CCC3)N(Nc3ccccc3)C2C1=O (stereo unspecified) , what is its reported z-score?
-0.623

Given the molecule O=[N+]([O-])c1ccc(C[n+]2ccc3ccc(O)cc3c2)o1 , what is its reported z-score?
-2.03

Given the molecule COc1cccc([C@@H]2[C@@H](C)CC[C@H]3C(=O)N(C)[C@@H](C(C)C)C(=O)N23)c1 , what is its reported z-score?
0.652

Given the molecule COC(=O)c1ccc(C#CC(NP(=O)(c2ccccc2)c2ccccc2)c2ccccc2)cc1 (stereo unspecified) , what is its reported z-score?
0.0037

Given the molecule C=CCN(C(=O)C1N(c2ccc(CCO)cc2)C(=O)C2C(C(=O)O)C3C=CC21O3)C(C)(C)C (stereo unspecified) , what is its reported z-score?
2.89

Given the molecule O=C1O[C@@H](c2ccccc2)[C@@H](c2ccccc2)N2[C@@H](c3ccc(OCCO)cc3)[C@]3(C(=O)Nc4ccc(C#CCCO)cc43)[C@@H](C(=O)N3CCN(c4ncccn4)CC3)[C@H]12 , what is its reported z-score?
1.14
